Cited source for all entries: patent US20040205843A1

SYSTEM_UNDER_TEST: Maize Rb (amino acids 214-866) fused to the Gal4 DNA binding domain (Zm214C) (maize)
Sequence (P04386 1-147): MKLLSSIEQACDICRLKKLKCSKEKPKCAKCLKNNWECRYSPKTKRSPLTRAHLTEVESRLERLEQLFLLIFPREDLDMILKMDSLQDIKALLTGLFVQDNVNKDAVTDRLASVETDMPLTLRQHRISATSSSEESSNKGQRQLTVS
READOUT_NAME: Rep/Rb (Rb binding activity relative to wild type)

Request: Given AL1 EKY159 (Ala7) fused to the Gal4 activation domain (pNSB760) (other) MPSHPKRFQINAKNYFLTYPQCSLSKEESLSQLQALNTPINKKFIKICRELHEDGQPHLHVLIQFEGKYCCQNQRFFDLVSPTRSAHFHPNIQRAKSSSDVKTYIDKDGDTLVWGEFQVDGRSARGGCQTSNDAAAEALNASSKEEALQIIREKIPAAALFQFHNLNSNLDRIFDKTPEPWLPPFHVSSFTNVPDEMRQWAENYFGKSSAARPERPISIIIEGDSRTGKTMWARSLGPHNYLSGHLDLNSRVYSNKVEYNVIDDVTPQYLKLKHWKELIGAQRDWQTNCKYGKPVQIKGGIPSIVLCNPGEGASYKVFLDKEENTPLKNWTFHNAKFVFLNSPLYQSSTQSS , state its recorded Rep/Rb (Rb binding activity relative to wild type).
Response: 31 relative to wild type (100)
